Data origin: ChEMBL document CHEMBL3988442

molecular target: Sialic acid-binding Ig-like lectin 9 (Homo sapiens) (UniProt Q9Y336); assay: Hs-Siglec9 ALPHAscreen SOP 20170721; set-up: scale not given: direction of the effect not stated beside the values; conditions: 10 µM
Sequence (Q9Y336 whole entry): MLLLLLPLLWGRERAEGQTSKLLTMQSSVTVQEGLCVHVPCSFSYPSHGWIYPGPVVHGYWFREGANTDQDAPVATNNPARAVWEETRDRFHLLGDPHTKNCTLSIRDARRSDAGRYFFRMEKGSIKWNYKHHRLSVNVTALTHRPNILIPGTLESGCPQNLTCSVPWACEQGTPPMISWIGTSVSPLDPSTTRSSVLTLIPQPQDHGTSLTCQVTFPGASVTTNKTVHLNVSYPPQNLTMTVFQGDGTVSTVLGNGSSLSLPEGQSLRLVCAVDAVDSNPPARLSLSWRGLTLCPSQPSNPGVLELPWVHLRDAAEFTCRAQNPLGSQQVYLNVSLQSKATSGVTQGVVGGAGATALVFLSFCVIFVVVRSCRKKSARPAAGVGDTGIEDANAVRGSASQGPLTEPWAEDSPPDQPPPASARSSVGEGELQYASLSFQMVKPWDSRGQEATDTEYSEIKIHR
Please go through the items and note down their Percent Effect.
Give your result in % as a bare value.

Q) Looking for the measured Percent Effect of Cc1noc(CCCC(=O)NC(C)c2ccccn2)n1 (centres undefined) , can you help?
A) 2.7

Q) Input CN(CCn1nc2ccccn2c1=O)CC(=O)N1CCCC1
A) 5.95

Q) Query CC(OCC(F)(F)F)C(=O)Nc1ccc(-n2cncn2)nc1 (centres undefined) next
A) -9.5

Q) Next record, please: c1cnnc(N2CCCC2CNCc2nc3ccccc3o2)c1 (centres undefined)
A) 10.3

Q) Request: Cc1cc2nc(SCC(=O)N3CCOCC3)n(CC(C)C)c(=O)c2[nH]1
A) -4.31

Q) Please give the result for CC(=O)N1CCCC1C(=O)NCCOc1cc(C)cc(C)c1 (centres undefined) too.
A) 10.6

Q) Moving on to CC(C)c1noc(C(C)N2CCN(Cc3ccsc3)CC2)n1 (centres undefined)
A) -4.87

Q) Another compound to look at: O=C(NCCCO)C1CC(=O)N(c2n[nH]c3cccc(F)c23)C1 (centres undefined)
A) -2.48

Q) Continue with N#Cc1cccc(SCCS(N)(=O)=O)c1
A) 14.2

Q) Would you kindly repeat that for O=C([C@@H]1COC[C@H]2CN(C3CCOCC3)C[C@H]21)N1CCCCO1 ?
A) -8.11

Q) Continue with Cc1nc(CN2CCCC2c2c(C)nn(C)c2Cl)no1 (centres undefined)
A) -3

Q) And then CN(CC(N)=O)S(=O)(=O)c1ccc(F)cc1Cl , what is it?
A) 5.52

Q) How about CNc1nc(CNC(=O)Nc2ccccc2-c2noc(C)n2)cs1 ?
A) -0.349

Q) Also, COCc1ccccc1CNc1cc(N2CCCC2CO)ncn1 (centres undefined) please.
A) 3.3
